Task for the reader: assign each of the following binders its reported neutralization concentration (GMC, CPE reduction on Vero C1008 cells).
# Target desc: EBOV Mayinga (GenBank: NC_002549) (Zaire Ebolavirus (EBOV Mayinga)) (UniProt Q05320)
# Assay summary: cell-based or functional assay
Your answer should be a plain number; it is taken to be in µg/mL.

Tell me neutralization concentration (GMC, CPE reduction on Vero C1008 cells) reported for 4T0784 (antibody, V domains shown) VH: QVQLVESGGGVVQPGRSLRLSCAASGFTFSTYGVHWVRQAPGKGLEWVGVIWYDGSKKYYADSVKGRFTISRDNSKNTLYLQMNSLRAEDAAVYRCVRGGDLLLLPDSIDYYGMDVWGQGTLVTVSS VL: KDHDPQAPVSLSASVGDRVTITCRASQGIRNDLGWYQQKPGKAPKRLIYAASSLQSGVPSRFSGSGSGTEFTLTISSLQPEDFATYYCLQHNTYPFSFGPGTKVDIK
1.86

Tell me neutralization concentration (GMC, CPE reduction on Vero C1008 cells) reported for 1T0473 (antibody, V domains shown) VH: QVQLVQSGAEVKKPGASVKVSCKASGYTFPSYEINWVRQATGQGLEWMGWMDPKSGKTGYAQKFQGRVTMTRNPSISTAYLELSSLRSEDSAVYYCARGNQWFGELLSSYYGLDVWGQGTTVTVSS VL: EIVLTQSPGTLSLSPGEGATLSCRASQSVSSSFLTWYHQKPGQAPRLLIYGASNRATGVPDRFSGGGSGTDFTLTISRLEPEDFGVYYCQQYGSSLITFGPGTKVDIK
2.63

Tell me neutralization concentration (GMC, CPE reduction on Vero C1008 cells) reported for 5T0223 (antibody, V domains shown) VH: EVQLVESGGGLVKPGGSLRLSCEASGFTFRNTWMNWVRQAPGKGLEWVGRIKSNTDGGTADYAAPVKGRFTISRDDSKSTLFLEMISLRTEDTGFYYCTKGGPGAHSWGLGTLVTVSS VL: QSVLTQPPSVSGAPGQRVTISCTGSSSNIGAGYDVQWYQQLPGTAPKVLIYHNTNRPSGVPDRFSGSRSGTSASLVITGLQAEDEADYYCQTYDSRLSDHWVFGGGTKLTVL
1.86

Sourced from patent US20240075139A1
